Kindly supply the reported IC50 values for the records listed here.
- Assay system: Squalene synthase (Rattus norvegicus)
- Sequence (Q02769 whole entry): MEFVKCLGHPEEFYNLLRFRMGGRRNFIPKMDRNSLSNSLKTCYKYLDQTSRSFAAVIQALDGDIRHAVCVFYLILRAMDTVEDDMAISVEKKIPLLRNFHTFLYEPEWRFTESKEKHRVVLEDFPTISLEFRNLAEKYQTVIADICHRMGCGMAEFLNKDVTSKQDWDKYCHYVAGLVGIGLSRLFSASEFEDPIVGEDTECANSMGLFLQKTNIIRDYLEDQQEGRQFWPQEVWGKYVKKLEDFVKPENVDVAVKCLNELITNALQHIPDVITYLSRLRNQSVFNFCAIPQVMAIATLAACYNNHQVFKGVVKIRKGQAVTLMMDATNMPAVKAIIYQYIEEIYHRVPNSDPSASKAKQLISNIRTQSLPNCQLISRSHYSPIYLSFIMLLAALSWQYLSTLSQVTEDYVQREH
- Protocol text: In vitro inhibition against rat microsomal squalene synthase (SS)

Compound	Assay system	IC50
O=S(=O)(NC1CN2CCC1CC2)c1ccc(-c2ccccc2)cc1 (stereo unspecified)	Squalene synthase (Rattus norvegicus)	> 2500 nM
OC1(c2ccc(-c3nc4ccccc4s3)cc2)CN2CCC1CC2 (stereo unspecified)	Squalene synthase (Rattus norvegicus)	6 nM
OC1(c2ccc(-c3nccs3)cc2)CN2CCC1CC2 (stereo unspecified)	Squalene synthase (Rattus norvegicus)	30 nM
OC1(C#Cc2ccc(-c3ccccc3)cc2)CN2CCC1CC2 (stereo unspecified)	Squalene synthase (Rattus norvegicus)	3 nM
OC(c1ccc(-c2ccccc2)cc1)C1CN2CCC1CC2 (stereo in doubt; 32)	Squalene synthase (Rattus norvegicus)	2500 nM
OC1(c2ccc(-c3ccncc3)cc2)CN2CCC1CC2 (stereo unspecified)	Squalene synthase (Rattus norvegicus)	161 nM
OC1(CSc2ccc(-c3ccccc3)cc2)CN2CCC1CC2 (stereo unspecified)	Squalene synthase (Rattus norvegicus)	8 nM
OC1(c2ccc(-c3ccccn3)cc2)CN2CCC1CC2 (stereo unspecified)	Squalene synthase (Rattus norvegicus)	240 nM

// each listed compound needs a value for IC50
1. c1ccc(-c2ccc(CCC3CN4CCC3CC4)cc2)cc1 (stereo unspecified)
2. OC1(c2ccc(-c3ccccc3)cc2)CN2CCC1CC2 (stereo in doubt; 2a(-))
3. OC1(c2ccc(-c3ncccn3)cc2)CN2CCC1CC2 (stereo unspecified)

["5 nM", "121 nM", "30 nM"]

The values you see were collected from ChEMBL document CHEMBL1129249.
